Origin of the recorded values: ChEMBL document CHEMBL1201862

# experimental_system: Nuclear receptor subfamily 5 group A member 2 (Homo sapiens);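 also: HEK293T cells transfected with LRH-1 and a StAR promoter luciferase reporter; potency for inhibitors that lower LRH-1 driven reporter light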
# Sequence (O00482 whole entry): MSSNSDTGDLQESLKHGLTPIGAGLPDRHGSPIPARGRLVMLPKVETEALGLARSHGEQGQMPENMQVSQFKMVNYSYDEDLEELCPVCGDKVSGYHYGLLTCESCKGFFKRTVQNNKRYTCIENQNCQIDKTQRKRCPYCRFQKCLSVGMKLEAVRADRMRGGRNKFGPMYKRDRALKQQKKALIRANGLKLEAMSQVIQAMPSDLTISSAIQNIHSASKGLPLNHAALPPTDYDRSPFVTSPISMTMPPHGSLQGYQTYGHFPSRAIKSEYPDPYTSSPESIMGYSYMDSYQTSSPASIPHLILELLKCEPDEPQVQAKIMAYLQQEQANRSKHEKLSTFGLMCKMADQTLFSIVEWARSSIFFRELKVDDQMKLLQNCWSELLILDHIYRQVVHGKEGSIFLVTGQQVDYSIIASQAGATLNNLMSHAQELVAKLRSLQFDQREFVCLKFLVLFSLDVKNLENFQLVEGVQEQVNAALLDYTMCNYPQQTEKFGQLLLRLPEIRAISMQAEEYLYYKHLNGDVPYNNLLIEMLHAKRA
# Format: functional, cell-based
Active and inactive are the calls of the source.
Your reply should match one of these outcome classes. active, inactive

CCn1c(SCC(=O)Nc2ccc(Cl)cc2)nnc1C1CC1 ... inactive

Ask: Which outcome was assigned to `COc1ccc(NS(=O)(=O)c2ccc(OCC(=O)N3CCN(C)CC3)cc2)cc1Cl` in this test?
Result: active

Ask: Lab log entry: `COc1cc(/C=N/NC(N)=S)ccc1OCC(=O)Nc1ccc(C)cc1` — outcome as called in the assay?
Result: inactive

Ask: For `COc1ccc(NC(=O)CN2C(=O)NC3(CCCC3)C2=O)cc1` , what call appears in the results of this test?
Result: inactive

###

# experimental_system: Polyadenylate-binding protein 1 (Homo sapiens, UniProt P11940)
# Sequence (P11940 whole entry, the tested form may be a part): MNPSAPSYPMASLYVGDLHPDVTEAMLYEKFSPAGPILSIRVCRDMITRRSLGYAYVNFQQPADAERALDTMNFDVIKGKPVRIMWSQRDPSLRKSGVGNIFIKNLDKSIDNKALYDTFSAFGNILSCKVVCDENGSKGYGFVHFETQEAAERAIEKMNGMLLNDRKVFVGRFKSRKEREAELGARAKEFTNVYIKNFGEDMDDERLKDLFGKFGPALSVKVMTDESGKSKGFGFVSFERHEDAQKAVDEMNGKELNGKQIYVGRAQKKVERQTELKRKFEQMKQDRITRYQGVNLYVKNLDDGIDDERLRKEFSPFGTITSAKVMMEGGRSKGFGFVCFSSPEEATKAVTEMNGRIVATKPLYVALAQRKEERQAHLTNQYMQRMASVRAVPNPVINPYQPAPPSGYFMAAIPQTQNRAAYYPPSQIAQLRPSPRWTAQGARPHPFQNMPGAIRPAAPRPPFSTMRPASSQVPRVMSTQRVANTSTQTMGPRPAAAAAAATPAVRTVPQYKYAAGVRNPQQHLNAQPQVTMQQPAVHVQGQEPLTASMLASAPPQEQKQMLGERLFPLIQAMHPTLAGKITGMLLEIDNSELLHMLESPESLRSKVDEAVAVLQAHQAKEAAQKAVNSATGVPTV
# assay_notes: MLLE domain peptide-binding blockers, IC50 – biochemical, fluorescence polarization, FITC-PAM2 peptide, dose response (AID 602259)
# Type: functional
# condition_info: read-out: IC50_Mean
The source made the active and inactive calls.
Measured IC50 of individual entries

Worked examples, 5 compounds total:
COc1ccc(NC(=O)Nc2cc(C)cc(C)c2)cn1 ... 21.8 µM (inactive)
CC1(C)CC2=C(CO1)C(S)=NC(c1ccccc1)N2CC1CCCO1 (stereo not drawn) ... > 66 µM (inactive)
CCCCC1OC23CCCCC2C(C#N)(C(=N)O3)C1(C#N)C#N (stereo not drawn) ... > 66 µM (inactive)
CCN(CC)Cc1c(O)c(Cl)cc2c(C)cc(=O)oc12 ... 39.1 µM (inactive)
COc1ccc(C(=O)NC(=S)NC2CCSC2=O)cc1 (stereo not drawn) ... > 66 µM (inactive)

Ask: Which IC50 value is on record for `Cn1c(=O)c2c(O)cc(N)nc2n(C)c1=O` ?
Result: 56.2 µM (inactive)

Ask: Query (compound): `Oc1ccc(/C=N/n2cc(-c3ccccc3)nc2S)cc1` ; field requested: IC50
Result: > 66 µM (inactive)

Ask: Name the recorded IC50 for `COc1ccc(OCCCC(=O)OCC(=O)Nc2ncc(Cl)cc2Cl)cc1` .
Result: 30.3 µM (inactive)

###

compounds and their reported EC50
# experimental_system: Heat shock factor protein 1 (Mus musculus)
# Sequence (P38532 whole entry): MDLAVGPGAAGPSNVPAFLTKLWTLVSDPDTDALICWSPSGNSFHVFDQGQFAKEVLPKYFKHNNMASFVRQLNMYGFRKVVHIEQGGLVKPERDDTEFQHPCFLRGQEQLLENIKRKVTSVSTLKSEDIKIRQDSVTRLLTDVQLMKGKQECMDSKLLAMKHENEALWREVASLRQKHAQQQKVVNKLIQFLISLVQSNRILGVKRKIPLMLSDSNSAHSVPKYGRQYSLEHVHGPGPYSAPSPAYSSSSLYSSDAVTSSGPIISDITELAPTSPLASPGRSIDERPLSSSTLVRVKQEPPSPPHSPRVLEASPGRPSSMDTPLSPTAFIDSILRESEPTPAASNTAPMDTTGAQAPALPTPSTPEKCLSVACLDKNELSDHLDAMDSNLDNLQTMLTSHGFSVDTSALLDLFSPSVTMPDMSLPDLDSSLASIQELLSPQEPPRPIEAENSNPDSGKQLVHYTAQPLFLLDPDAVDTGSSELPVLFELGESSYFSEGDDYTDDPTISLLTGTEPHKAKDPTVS
# assay_notes: decrease of HSF1-responsive luciferase luminescence – cell-based, NIH3T3, dose retest, confirmation (AID 2382);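 also: NIH3T3 fibroblasts with HSF1-driven luciferase reporter stressed by proteasome inhibitor MG132; luminescence from HSF1-driven luciferase expression after 8 hours of MG132 stress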
# Type: functional
The source made the active and inactive calls.

COc1cc(NC(=O)c2cccs2)c(C(=O)OCC(=O)c2cc(C)n(-c3ccc(F)cc3)c2C)cc1OC ... 4.87 µM (active)
COc1ccc(OC)c(Nc2nc(-c3sc(NC(=O)C(C)(C)C)nc3C)cs2)c1 ... > 195 µM (not active)
Cc1[nH]n(-c2ccc([N+](=O)[O-])cc2)c(=O)c1/C=N/CCN1CCN(C(=O)C(C)C)CC1 ... > 195 µM (not active)
COc1ccc2c(c1)sc1nc(-c3ccccc3)cn12 ... 2.23 µM (active)
COc1ccc(NC(=O)CN(C)S(=O)(=O)c2ccc3c(c2)CCC(=O)N3)c(OC)c1 ... > 195 µM (not active)

Could you now consider this next compound?
Ask: Which EC50 is listed for `C(=N\n1cncn1)/c1ccc(N2CCOCC2)cc1` ?
Result: > 195 µM (not active)

###

# experimental_system: Protein skinhead-1 (Caenorhabditis elegans)
# Sequence (P34707 whole entry): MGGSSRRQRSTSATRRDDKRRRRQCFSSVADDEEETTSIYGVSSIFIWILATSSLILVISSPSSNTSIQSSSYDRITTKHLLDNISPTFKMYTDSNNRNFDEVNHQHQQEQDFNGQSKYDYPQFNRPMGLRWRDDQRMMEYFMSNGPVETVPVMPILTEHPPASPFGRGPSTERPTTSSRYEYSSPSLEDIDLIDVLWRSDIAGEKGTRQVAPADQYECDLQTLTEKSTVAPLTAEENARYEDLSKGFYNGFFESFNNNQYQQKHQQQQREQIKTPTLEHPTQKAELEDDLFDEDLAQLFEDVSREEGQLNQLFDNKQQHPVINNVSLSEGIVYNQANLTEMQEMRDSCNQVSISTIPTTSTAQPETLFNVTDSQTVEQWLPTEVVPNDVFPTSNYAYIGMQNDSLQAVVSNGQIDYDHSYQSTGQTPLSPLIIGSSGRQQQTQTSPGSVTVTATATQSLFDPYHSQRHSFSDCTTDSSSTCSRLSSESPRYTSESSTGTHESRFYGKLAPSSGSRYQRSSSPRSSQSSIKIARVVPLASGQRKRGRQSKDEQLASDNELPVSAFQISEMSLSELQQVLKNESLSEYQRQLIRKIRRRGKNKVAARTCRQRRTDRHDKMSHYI
# Assay type: functional
Activity calls are given as the source filed them.
Return exactly one item of 1 (active), -1 (inactive)

Before answering, review these 2 worked examples.
CCOc1ccccc1NC(=O)CSc1ncnc2c1oc1ccccc12 ... -1
C(=C\c1nc(-c2ccncc2)no1)/c1ccccc1 ... 1

Switching to the query record.
Ask: Which outcome did this test record for the compound `O=C(c1ccco1)N1CCN(C/C=C/c2ccccc2)CC1` ?
Result: -1

###

# System: Streptococcus
# assay_notes: GAS UMAA2166 growth inhibition – luminescence, BacTiterGlo, counter-screen for streptokinase expression inhibitor project, dose response (AID 1915);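 also: potency for reduction of bacterial viability or growth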
# Format: functional, organism-based
Activity calls are given as the source filed them.
EC50 listing for selected compounds.

Here is how some compounds turned out for EC50.
C=C(C)COc1ccc(-c2[nH]nc(C)c2-c2ccc(Br)cc2)c(O)c1 ... 4.72 µM (active)
Cn1c(O)c(N=NC(S)=Nc2ccccc2F)c2cc(S(=O)(=O)N3CCOCC3)ccc21 ... 44.2 µM (active)
CCC(Oc1ccccc1)C(=O)Nc1ccccc1N1CCCCC1 (stereo unspecified) ... 19.9 µM (active)
CC(=O)NC(c1ccc(Cl)cc1Cl)c1ccc2cccnc2c1O (stereo unspecified) ... 6.93 µM (active)
CCCCCCCC(=O)NNC(=O)c1c(O)c2ccccc2n(CC)c1=O ... 6.17 µM (active)

// switching to the query compound
Ask: Entry `O=C(Nc1ccccc1C(=O)Nc1nnc(C(F)(F)F)s1)c1ccccc1Cl` has what EC50?
Result: 3.2 µM (active)

###

# experimental_system: Cytochrome P450 2C19 (Homo sapiens, UniProt P33261)
# Sequence (P33261 whole entry): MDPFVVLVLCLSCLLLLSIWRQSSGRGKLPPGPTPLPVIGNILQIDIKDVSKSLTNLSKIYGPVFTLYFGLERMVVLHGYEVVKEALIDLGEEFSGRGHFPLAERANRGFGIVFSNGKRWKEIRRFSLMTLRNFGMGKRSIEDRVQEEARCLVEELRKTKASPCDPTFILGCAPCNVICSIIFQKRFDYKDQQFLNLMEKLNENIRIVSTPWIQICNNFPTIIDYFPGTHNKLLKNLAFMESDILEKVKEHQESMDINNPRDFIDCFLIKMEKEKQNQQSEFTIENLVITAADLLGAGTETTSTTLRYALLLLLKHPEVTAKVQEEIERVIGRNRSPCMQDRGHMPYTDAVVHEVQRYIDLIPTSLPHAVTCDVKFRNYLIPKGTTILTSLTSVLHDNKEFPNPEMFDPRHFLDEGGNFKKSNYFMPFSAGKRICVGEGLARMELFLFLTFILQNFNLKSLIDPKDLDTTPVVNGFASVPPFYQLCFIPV
# assay_notes: Cytochrome panel assay with activity outcomes. Panel member name: p450-cyp2c19 Compounds with AC50 equal or less than 10 uM are considered active
# Assay type: functional
# condition_info: read-out: AC50
readout: AC50

Study these solved cases before continuing.
N#CC(C#N)=NNc1ccc2cn[nH]c2c1 ... 3.16 µM (inconclusive)
Ic1cncc(OC[C@@H]2CCN2)c1 ... 15.8 µM (inconclusive)
CC1CCN(c2ccc(NC(=S)NC(=O)c3ccco3)cc2)CC1 ... 3.98 µM (inconclusive)
O=C(c1cccc(F)c1)N1CCC2(CCN(Cc3ccncc3)CC2)CC1 ... 25.1 µM (inconclusive)
Cc1cc(C)c2c(N=NN(C)C)[nH]nc2n1 ... 39.8 µM (inconclusive)

Ask: Given the molecule `O=C(Nc1ccc(F)cc1Cl)c1ccc2c(=O)n3c(nc2c1)CCCCC3` , what is its reported AC50?
Result: 3.98 µM (inconclusive)

###

Each entry below lists one item and its recorded AC50 value.
# experimental_system: Paired box protein Pax-8 (Homo sapiens, UniProt Q06710)
# Sequence (Q06710 whole entry): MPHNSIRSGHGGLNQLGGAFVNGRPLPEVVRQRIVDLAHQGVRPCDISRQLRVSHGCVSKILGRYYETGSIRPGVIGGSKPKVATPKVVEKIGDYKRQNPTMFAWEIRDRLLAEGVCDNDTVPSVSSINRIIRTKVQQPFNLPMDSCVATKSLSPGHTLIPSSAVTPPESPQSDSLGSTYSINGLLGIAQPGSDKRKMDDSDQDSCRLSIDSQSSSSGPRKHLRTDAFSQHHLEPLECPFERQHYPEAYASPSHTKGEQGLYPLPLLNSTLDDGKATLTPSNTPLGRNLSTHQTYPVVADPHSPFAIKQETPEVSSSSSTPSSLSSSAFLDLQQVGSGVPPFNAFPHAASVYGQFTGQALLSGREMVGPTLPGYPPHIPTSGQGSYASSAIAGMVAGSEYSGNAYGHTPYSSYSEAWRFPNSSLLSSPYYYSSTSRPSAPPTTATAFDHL
# assay_notes: PAX8 transcriptional activity inhibition in RMG-I – RMG-I cells, luciferase, cherry-pick, dose response (AID 687027);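 also: luciferase reporter driven by Pax8 target thyroperoxidase promoter measured by SteadyGlo luminescence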
# Assay type: functional, cell-based
Active and inactive are the calls of the source.

Known AC50 results, listed for orientation:
O=C(C[C@H]1CC[C@@H]2[C@H](COC[C@@H](O)CN2S(=O)(=O)c2cccc(Cl)c2)O1)Nc1ccc(-c2ccccc2)cc1 ... 8.33 µM (active)
COc1ccc(-c2cnc3c(NC=O)cc(-c4cccc(NS(C)(=O)=O)c4)cn23)cc1OC ... 5.09 µM (active)
Cc1nn(-c2nc3ccccc3[nH]2)c(=O)c2ccccc12 ... 1.54 µM (active)
C[C@@H]1CN([C@H](C)CO)C(=O)c2cc(NC(=O)Nc3ccc(F)cc3)ccc2O[C@@H](C)CCCCO[C@H]1CN(C)Cc1ccc(C(F)(F)F)cc1 ... 4.13 µM (active)

Ask: Looking for the measured AC50 of `O=C(Nc1ccc(C(F)(F)F)cc1)Nc1ccc2c(c1)[C@@H]1C[C@H](CC(=O)N3CCc4ccccc4C3)O[C@H](CO)[C@@H]1O2` , can you help?
Result: 9.5 µM (active)

Ask: So what does the record say about AC50 for CCS(=O)(=O)c1ncc(Cl)c(C(=O)Nc2ccc(S(=O)(=O)N3CCCC(C)C3)cc2)n1 (stereo not drawn) ?
Result: 5.34 µM (active)

Ask: For the molecule shown here, `C[C@@H]1CCCCO[C@@H](CN(C)Cc2ccccc2)[C@H](C)CN([C@@H](C)CO)C(=O)c2cc(NC(=O)Nc3ccc(C(F)(F)F)cc3)ccc2O1` , give the reported AC50.
Result: 10.8 µM (active)

Ask: What value of AC50 has been reported for the following molecule? COc1cc(C2c3cc4c(c(O)c3CC3COC(=O)C32)OCO4)cc(OC)c1OC (stereo not drawn)
Result: < 0.26 µM (active)

Ask: Entry `Cc1nn(-c2ccccc2)c(Cl)c1CN(C(=O)CCl)c1cccc2ccccc12` : reported AC50 = ?
Result: 9.95 µM (active)

Ask: Returns the measured AC50 for the input molecule. Input: `C[C@@H]1CN([C@H](C)CO)C(=O)c2cc(NS(=O)(=O)c3ccc(Cl)cc3)ccc2O[C@@H](C)CCCCO[C@H]1CN(C)Cc1ccc(Cl)c(Cl)c1`
Result: 4.84 µM (active)
